system: UACC-62; experiment: NCI tumour cell line growth inhibition, 48 h
The source made the active and inactive calls. No stated cut-off is given here; in the data, active = GI50 up to about 1.1 µM and inactive = higher. *1 amine or outer side, *2 acyl side, *3 side chain or, on linkers, in order; H or OH if unused. Where a SMILES comes first, the peptide text is derived from it. [ ]: non-standard residue; d: D form. The star is where a group is joined. ξ: configuration not given here. X43 = CCC(=O)CC(O)CC(C)CC(N[*:1])C(=O)[*:2]; ξLeu(3ξ-OH) = CC(C)C(O)C(N)C(=O)O; ξPro(4ξ-Me) = CC1CNC(C(=O)O)C1; X42 = CCC(C)/C=C/C(=O)*; Aib = CC(C)(N)C(=O)O; X44 = CC(CN(C)C)N*; βAla = NCCC(=O)O
Classes to choose from: active, inactive

>>> label("CCC(=O)CC(O)CC(C)CC(NC(=O)C1CC(C)CN1C(=O)/C=C/C(C)CC)C(=O)NC(C(=O)NC(C)(C)C(=O)NC(CC(C)C)C(=O)NC(CC(C)C)C(=O)NC(C)(C)C(=O)NC(C)(C)C(=O)NCCC(=O)NC(C)CN(C)C)C(O)C(C)C (stereo not drawn) (X42-[ξPro(4ξ-Me)][X43][ξLeu(3ξ-OH)][Aib]LL[Aib][Aib][βAla]-X44; configuration not given here)")
"active"

input: State the result this test recorded for C[C@@H](NC1CCC[C@@H]1O)c1ccccc1 (stereo partly drawn) .
output: inactive

input: For `O=C1/C(=N\O)c2ccccc2S1(=O)=O` then?
output: inactive

input: Also need `O=C1OC(c2cccc(C(F)(F)F)c2)(c2cccc(C(F)(F)F)c2)c2ccc3ccccc3c21` , thanks.
output: inactive

---

system: SF-295; assay: NCI tumour cell line growth inhibition, 48 h
Activity calls are given as the source filed them. Rule as the data show it: active = GI50 up to about 1.1 µM and inactive = higher.
metricName: GI50

input: Can you look up the measured GI50 of `O=C1c2ccccc2C(=O)c2c1c1cc(O)ccc1n2Cc1ccc(Cl)cc1Cl` for me?
output: 7.5 µM (inactive)

---

system: CAKI-1; assay: NCI tumour cell line growth inhibition, 48 h
Active and inactive are the calls of the source. Cut-off read from the data, not from the text of the source: active = GI50 up to about 1.1 µM and inactive = higher.
Hi! Could you answer with just one of these? yes (active), no (inactive)

// below: answered molecules
>>> label("COc1cc2cc(C(=O)N3CC(CCl)c4c3cc(NCCN)c3ccccc43)[nH]c2c(OC)c1OC (stereo not drawn)")
"yes"
>>> label("CCc1[nH]c(=O)nc(N)c1-c1ccc(N2CCCCC2)c([N+](=O)[O-])c1")
"no"
>>> label("CCCCSC1=N/C(=C\\c2ccc(N(C)C)cc2)C(NN)=N1")
"no"
>>> label("O=c1c2c3c(sc2nc2n1N=C(c1ccc([N+](=O)[O-])cc1)CS2)CCCC3")
"no"
>>> label("CC(=O)O[C@H]1C(=O)[C@]2(C)[C@@H](OC(=O)OCCC(O)CO)C[C@H]3OC[C@@]3(OC(C)=O)[C@H]2[C@H](OC(=O)c2ccccc2)[C@]2(O)C[C@H](OC(=O)[C@H](O)[C@@H](NC(=O)c3ccccc3)c3ccccc3)C(C)=C1C2(C)C (stereo partly drawn)")
"no"
>>> label("CC1CC(NN)=Nc2ccccc2N1 (stereo not drawn)")
"no"
>>> label("CC(C)(CO[C@H]1C[C@H]2CC[C@@]1(C)C2(C)C)[N+](=O)[O-]")
"no"

input: Recorded test outcome, item CCN1CCC(O)(c2ccc(Oc3ccc(C)cc3)cc2)C(C(=O)c2ccc(Oc3ccc(C)cc3)cc2)C1 (stereo not drawn)
output: no
